test system: HCC1806 s.c. xenografts; assay: HCC1806 s.c. breast cancer xenograft efficacy (tumor volume, relative tumor volume, tumor weight, TGI); type: in vivo, BALB/c nude mice; conditions: group mean, 30 mg/kg P.O. BID, day 0
Reported property: Tumor volume D0 (mm^3)
Kindly answer with a numeric value in mm^3, unit omitted.

Below, 3 compounds whose answers are already recorded.
>  <Compound>
[2H]C([2H])([2H])c1cc2cnc(NC3([2H])C([2H])([2H])CN(S(C)(=O)=O)CC3([2H])[2H])nc2n([C@@H]2CCC[C@@]2(C)O)c1=O [Comp. 164]

>  <Tumor volume D0 (mm^3)>
112.74

$$$$
>  <Compound>
Cc1cc2cnc(NC3CCN(S(C)(=O)=O)CC3)nc2n([C@@H]2CCC[C@@]2(C)O)c1=O [Comp. 4, reference compound]

>  <Tumor volume D0 (mm^3)>
112.95

$$$$
>  <Compound>
[2H]C([2H])([2H])c1cc2cnc(NC3CCN(S(C)(=O)=O)CC3)nc2n([C@@H]2CCC[C@@]2(C)O)c1=O [Comp. 37]

>  <Tumor volume D0 (mm^3)>
109.89

$$$$

Lookup: Suppose we examine the compound C[C@@]1(O)CCC[C@H]1n1c(=O)c(C(F)F)cc2cnc(NC3CCN(S(C)(=O)=O)CC3)nc21 [Comp. 5, reference compound] ; what Tumor volume D0 value has been reported?
Found: 109.77

Lookup: Suppose we examine the compound [2H]C(F)(F)c1cc2cnc(NC3CCN(S(C)(=O)=O)CC3)nc2n([C@@H]2CCC[C@@]2(C)O)c1=O [Comp. 28] ; what Tumor volume D0 value has been reported?
Found: 111.13

Lookup: Suppose we examine the compound [2H]C([2H])([2H])c1cc2cnc(NC3([2H])C([2H])([2H])CN(S(=O)(=O)C([2H])([2H])[2H])CC3([2H])[2H])nc2n([C@@H]2CCC[C@@]2(C)O)c1=O [Comp. 163] ; what Tumor volume D0 value has been reported?
Found: 110.66

* * *

assay: Body weight in the HCC1806 xenograft study; format: in vivo, BALB/c nude mice; conditions: group mean, 30 mg/kg P.O. BID, day 3
Listing of recorded Body weight D3 by entry.

Below, 2 molecules whose answers are already recorded.
>  <Molecule>
[2H]C([2H])([2H])c1cc2cnc(NC3([2H])C([2H])([2H])CN(S(=O)(=O)C([2H])([2H])[2H])CC3([2H])[2H])nc2n([C@@H]2CCC[C@@]2(C)O)c1=O

>  <Measured result>
17.61 g

$$$$
>  <Molecule>
C[C@@]1(O)CCC[C@H]1n1c(=O)c(C(F)F)cc2cnc(NC3CCN(S(C)(=O)=O)CC3)nc21 [Comp. 5, reference compound]

>  <Measured result>
18.07 g

$$$$

Now turn to the next molecule.
Lookup: Suppose we examine the molecule Cc1cc2cnc(NC3CCN(S(C)(=O)=O)CC3)nc2n([C@@H]2CCC[C@@]2(C)O)c1=O [Comp. 4, reference compound] ; what Body weight D3 value has been reported?
Found: 17.90 g

* * *

Listing of recorded Body weight D0 by entry.
Test: Body weight in the HCC1806 xenograft study
Type: in vivo, BALB/c nude mice
Settings: group mean, 30 mg/kg P.O. BID, day 0
Experimental: When the average tumor volume reached 80-120 mm^3, 42 tumor-bearing mice were randomized into 7 groups (6 mice per group) according to tumor volume. The grouping day was defined as Day 0. Treatment was applied immediately after grouping animals on the same day. The body weight of the testing animals were measured twice a week after grouping. Tumor volumes by the length and width of the tumor were measured by electric calipers and the tumor volume (V) was calculated as follows: V=(length×width^2)/2. […]
Please answer using the number first and the unit second.

Below, 2 compounds whose answers are already recorded.
>  <Compound>
[2H]C([2H])([2H])c1cc2cnc(NC3([2H])C([2H])([2H])CN(S(C)(=O)=O)CC3([2H])[2H])nc2n([C@@H]2CCC[C@@]2(C)O)c1=O

>  <Body weight D0>
18.47 g

$$$$
>  <Compound>
C[C@@]1(O)CCC[C@H]1n1c(=O)c(C(F)F)cc2cnc(NC3CCN(S(C)(=O)=O)CC3)nc21 [Comp. 5, reference compound]

>  <Body weight D0>
18.43 g

$$$$

Now turn to the next compound.
Lookup: Suppose we examine the compound [2H]C([2H])([2H])c1cc2cnc(NC3CCN(S(C)(=O)=O)CC3)nc2n([C@@H]2CCC[C@@]2(C)O)c1=O ; what Body weight D0 value has been reported?
Found: 18.25 g

* * *

assay: Pharmacokinetic profiling in mouse (i.v. and i.g.); type: in vivo, male ICR mice; conditions: male, ICR, plasma, iv, i.v. 5 mg/kg
Listing of recorded C0 by entry.
Kindly answer with a numeric value in ng/mL, unit omitted.

Below, 2 compounds whose answers are already recorded.
>  <Compound>
Cc1cc2cnc(NC3CCN(S(C)(=O)=O)CC3)nc2n([C@@H]2CCC[C@@]2(C)O)c1=O [Comp. 4, reference compound]

>  <C0 / ng/mL>
8300

$$$$
>  <Compound>
C[C@@]1(O)CCC[C@H]1n1c(=O)c(C(F)F)cc2cnc(NC3CCN(S(C)(=O)=O)CC3)nc21 [Comp. 5, reference compound]

>  <C0 / ng/mL>
5020

$$$$

Now turn to the next compound.
Lookup: Suppose we examine the compound [2H]C([2H])([2H])c1cc2cnc(NC3CCN(S(C)(=O)=O)CC3)nc2n([C@@H]2CCC[C@@]2(C)O)c1=O ; what C0 value has been reported?
Found: 7420

* * *

Test: Body weight in the HCC1806 xenograft study
Format: in vivo, BALB/c nude mice
Conditions: group mean, 30 mg/kg P.O. BID, day 10
Procedure: When the average tumor volume reached 80-120 mm^3, 42 tumor-bearing mice were randomized into 7 groups (6 mice per group) according to tumor volume. The grouping day was defined as Day 0. Treatment was applied immediately after grouping animals on the same day. The body weight of the testing animals were measured twice a week after grouping. Tumor volumes by the length and width of the tumor were measured by electric calipers and the tumor volume (V) was calculated as follows: V=(length×width^2)/2. […]
Listing of recorded Body weight D10 by entry.
Kindly answer with a numeric value in g, unit omitted.

Below, 5 compounds whose answers are already recorded.
>  <Compound>
[2H]C([2H])([2H])c1cc2cnc(NC3([2H])C([2H])([2H])CN(S(=O)(=O)C([2H])([2H])[2H])CC3([2H])[2H])nc2n([C@@H]2CCC[C@@]2(C)O)c1=O

>  <Body weight D10 [g]>
17.67

$$$$
>  <Compound>
Cc1cc2cnc(NC3CCN(S(C)(=O)=O)CC3)nc2n([C@@H]2CCC[C@@]2(C)O)c1=O [Comp. 4, reference compound]

>  <Body weight D10 [g]>
19.59

$$$$
>  <Compound>
[2H]C(F)(F)c1cc2cnc(NC3CCN(S(C)(=O)=O)CC3)nc2n([C@@H]2CCC[C@@]2(C)O)c1=O

>  <Body weight D10 [g]>
17.66

$$$$
>  <Compound>
[2H]C([2H])([2H])c1cc2cnc(NC3([2H])C([2H])([2H])CN(S(C)(=O)=O)CC3([2H])[2H])nc2n([C@@H]2CCC[C@@]2(C)O)c1=O

>  <Body weight D10 [g]>
18.37

$$$$
>  <Compound>
[2H]C([2H])([2H])c1cc2cnc(NC3CCN(S(C)(=O)=O)CC3)nc2n([C@@H]2CCC[C@@]2(C)O)c1=O

>  <Body weight D10 [g]>
18.01

$$$$

Lookup: Suppose we examine the compound C[C@@]1(O)CCC[C@H]1n1c(=O)c(C(F)F)cc2cnc(NC3CCN(S(C)(=O)=O)CC3)nc21 [Comp. 5, reference compound] ; what Body weight D10 value has been reported?
Found: 17.82

* * *

Listing of recorded Tumor volume D17 by entry.
tested on: HCC1806 s.c. xenografts; assay: HCC1806 s.c. breast cancer xenograft efficacy (tumor volume, relative tumor volume, tumor weight, TGI); format: in vivo, BALB/c nude mice; settings: group mean, 30 mg/kg P.O. BID, day 17
Please answer using the number first and the unit second.

Lookup: Suppose we examine the molecule Cc1cc2cnc(NC3CCN(S(C)(=O)=O)CC3)nc2n([C@@H]2CCC[C@@]2(C)O)c1=O [Comp. 4, reference compound] ; what Tumor volume D17 value has been reported?
Found: 1757.63 mm^3

Lookup: Suppose we examine the molecule [2H]C([2H])([2H])c1cc2cnc(NC3([2H])C([2H])([2H])CN(S(C)(=O)=O)CC3([2H])[2H])nc2n([C@@H]2CCC[C@@]2(C)O)c1=O ; what Tumor volume D17 value has been reported?
Found: 1380.25 mm^3

Lookup: Suppose we examine the molecule [2H]C([2H])([2H])c1cc2cnc(NC3([2H])C([2H])([2H])CN(S(=O)(=O)C([2H])([2H])[2H])CC3([2H])[2H])nc2n([C@@H]2CCC[C@@]2(C)O)c1=O ; what Tumor volume D17 value has been reported?
Found: 1257.00 mm^3

Lookup: Suppose we examine the molecule [2H]C(F)(F)c1cc2cnc(NC3CCN(S(C)(=O)=O)CC3)nc2n([C@@H]2CCC[C@@]2(C)O)c1=O ; what Tumor volume D17 value has been reported?
Found: 1438.12 mm^3

Lookup: Suppose we examine the molecule [2H]C([2H])([2H])c1cc2cnc(NC3CCN(S(C)(=O)=O)CC3)nc2n([C@@H]2CCC[C@@]2(C)O)c1=O ; what Tumor volume D17 value has been reported?
Found: 1037.86 mm^3

Lookup: Suppose we examine the molecule C[C@@]1(O)CCC[C@H]1n1c(=O)c(C(F)F)cc2cnc(NC3CCN(S(C)(=O)=O)CC3)nc21 [Comp. 5, reference compound] ; what Tumor volume D17 value has been reported?
Found: 1139.14 mm^3
